Target: T1, human TNFSF9 (R&D Systems; #2295-4L-025/CF) (human, UniProt P41273 71-254, limits assumed)
T1 construct: also called TNFSF9 (ligand); TNFSF9 ligand
T1 sequence (P41273 71-254 limits assumed): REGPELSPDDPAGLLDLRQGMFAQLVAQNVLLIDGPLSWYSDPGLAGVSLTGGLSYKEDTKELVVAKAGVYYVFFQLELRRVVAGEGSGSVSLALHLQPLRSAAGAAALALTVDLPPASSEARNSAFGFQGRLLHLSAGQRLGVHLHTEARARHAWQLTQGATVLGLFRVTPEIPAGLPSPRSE
Assay: MSD ELISA: TNFSF9 + 1 ug/mL antibody, binding to coated TNFRSF9
This listing pairs binders with measured % inhibition of ligand receptor interaction.
Numbers only here, please. The scale is %.

Previously resolved entries follow.
INSERT INTO assay_data (binder, measurementunits, observedmeasurement) VALUES
  ('SC113.44 (antibody, mouse IgG1, V domains shown, mouse IgG1) VH: QVQLQQSGPELVKPGTSVRISCKASGYTFTSYYIHWVKQRPGQGLEWIGWIYPRDVDTKYNETFKGKATLTADKSSSTAYIQLNSLTSEDSAVYFCARELTGTVFDYWGQGTTLTVSS VL: QIVLSQSPAILSASPGEKVTMTCRASSSVTYMHWYQRKPGSSPKPWIYATSTLASGVPARFSGTGSGTSYSLTISRVEAEDAATYFCQQWSSNPLTFGAGTKLELK', '%', 48),
  ('SC113.150 (antibody, V domains shown) VH: EVQLQQSGAELVKPGASVKLSCTASGFNIKDYYLHWMKQRPEQGLEWIGRIDPENGETRYGPKFQGKATITADASSNTAYLQLRSLTSEDTAIYYCGRLDFYFDYWGQGTTLTVSS VL: QIVLSQSPAILSASPGERVTMTCRASSSVNYIHWYQQKPGSSPKPWIYATSNLASGVPARFSGSGSGTSYSLTISRMEAEDAATYYCQQWSSNPPTFGSGTKLAIK', '%', 98);

Q) So what does the record say about % inhibition of ligand receptor interaction for SC113.51 (antibody, mouse IgG2a, V domains shown, mouse IgG2a) VH: QVQLKESGPDLVAPSQSLSIICTVSGFSLTSYGVHWVRQSPGKGLEWLGVIWAGGLTNYNSALMSRLSISKDNSKSQVFLKMNSLQTDDTAMYYCVREKDYRYSYYFDYWGQGTTLTVSS VL: DIVMSQSPSSLAVSVGEKVTLSCKSSLSLLYSSNQENYLAWYQQKPGQSPKLLIYWASTRESGVPDRFTGSGSGTDFTLTISSVKAEDLAVYYCQQYYSYPRTFGGGTKLEIK ?
A) 99

Cited source for all entries: patent US20190016812A1
